Reference source for all entries: ChEMBL document CHEMBL3526082

experiment: Drug excretion in Sprague-Dawley rat bile treated with ganoderic acid D at 10 mg/kg, po after 12 hrs by UPLC/Q-TOF analysis
Assay type: ADME, organism-based
Set-up: dose 10 mg/kg, route oral
assay.setup: in vivo
measurement.type: Drug excretion

compound	measured
CC(CC(=O)CC(C)[C@H]1CC(=O)[C@@]2(C)C3=C(C(=O)C[C@]12C)[C@@]1(C)CCC(=O)C(C)(CO)[C@@H]1C[C@@H]3O)C(=O)O (stereo partly drawn)	metabolite_detected
CC(CC(=O)CC(C)[C@H]1CC(=O)[C@@]2(C)C3=C(C(=O)C[C@]12C)[C@@]1(C)CC(O)C(=O)C(C)(CO)[C@@H]1C[C@@H]3O)C(=O)O (stereo partly drawn)	metabolite_detected
CC(CC(=O)CC(C)[C@H]1CC(=O)[C@@]2(C)C3=C(C(=O)C[C@]12C)[C@@]1(C)CCC(O)C(C)(C)[C@@H]1C[C@@H]3O)C(=O)O (stereo partly drawn)	metabolite_detected
